Source: paper PMC5191963

Molecular target: T1, GST-tagged AIM2 (Invitrogen) (UniProt O14862 1-343)
T1 sequence (looked up): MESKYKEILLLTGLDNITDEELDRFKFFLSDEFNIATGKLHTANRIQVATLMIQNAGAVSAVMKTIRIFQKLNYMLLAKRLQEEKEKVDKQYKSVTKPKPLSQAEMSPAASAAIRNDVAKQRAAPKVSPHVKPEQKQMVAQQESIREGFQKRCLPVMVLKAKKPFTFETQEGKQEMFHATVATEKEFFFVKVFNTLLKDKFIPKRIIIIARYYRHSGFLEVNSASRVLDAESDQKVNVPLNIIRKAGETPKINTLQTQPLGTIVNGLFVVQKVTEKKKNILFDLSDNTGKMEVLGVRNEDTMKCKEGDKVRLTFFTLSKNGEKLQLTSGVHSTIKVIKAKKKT
Test: BLI
Hi there, I'd appreciate the recorded kon for every entry that follows.
Answers are plain numbers, in M⁻¹ s⁻¹.

{"columns": ["binder", "kon, M⁻¹ s⁻¹"],
 "data": [
  ["Recombinant HMGB1(C45S) (natural protein, human, UniProt P09429 1-215, looked up) MGKGDPKKPRGKMSSYAFFVQTCREEHKKKHPDASVNFSEFSKKSSERWKTMSAKEKGKFEDMAKADKARYEREMKTYIPPKGETKKKFKDPNAPKRPPSAFFLFCSEYRPKIKGEHPGLSIGDVAKKLGEMWNNTAADDKQPYEKKAAKLKEKYEKDIAAYRAKGKPDAAKKGVVKAEKSKKKKEEEEDEEDEEDEEEEEDEEDEDEEEDDDDE", 27000],
  ["Recombinant HMGB1 (disulfide HMGB1, not treated with DTT) (natural protein, human, UniProt P09429 1-215, looked up, disulfide bond between cysteines 23 and 45 (the paper calls the protein without DTT disulfide HMGB1)) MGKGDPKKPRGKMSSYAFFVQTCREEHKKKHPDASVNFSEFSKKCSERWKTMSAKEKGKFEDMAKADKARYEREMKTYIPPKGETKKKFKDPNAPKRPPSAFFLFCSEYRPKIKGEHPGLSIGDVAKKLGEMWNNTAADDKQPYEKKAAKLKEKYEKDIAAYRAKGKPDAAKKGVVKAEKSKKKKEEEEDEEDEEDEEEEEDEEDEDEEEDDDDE", 14000]
]}

Here is another binder to look at.
## Task Please report the recorded kon for Recombinant HMGB1 A box (disulfide form, not treated with DTT) (domain or fragment, disulfide form (the paper calls the A box without DTT its disulfide form)) MGKGDPKKPRGKMSSYAFFVQTCREEHKKKHPDASVNFSEFSKKCSERWKTMSAKEKGKFEDMAKADKARYEREMKTYI .
## Result 64000
